Molecular target: T1, recombinant human 5T4 ECD protein fused to human Fc (human, UniProt Q13641 32-355)
T1 construct: extracellular domain; Immunogen, ELISA antigen and Octet analyte; also called 5T4-ECD-hFc; 5T4-ECD-Fc; not shown: human Fc
T1 sequence (looked up): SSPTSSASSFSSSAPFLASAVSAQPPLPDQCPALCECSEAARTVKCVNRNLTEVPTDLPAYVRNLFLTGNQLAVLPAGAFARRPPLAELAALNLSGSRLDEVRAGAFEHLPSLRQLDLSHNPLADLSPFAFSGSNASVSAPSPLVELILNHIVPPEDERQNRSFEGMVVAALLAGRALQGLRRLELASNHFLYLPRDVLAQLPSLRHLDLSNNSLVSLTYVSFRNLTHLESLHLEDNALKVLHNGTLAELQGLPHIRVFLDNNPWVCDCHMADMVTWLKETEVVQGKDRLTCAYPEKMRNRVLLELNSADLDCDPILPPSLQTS
Experiment: Octet, mAb on AMC sensor, 5T4-Fc as analyte
endpointLabel: kon (M⁻¹ s⁻¹)
One number for each entry, in M⁻¹ s⁻¹.

So what does the record say about kon for mAb008 (antibody, V domains shown, also called IM, 5T4 mouse hybridoma cl-8) VH: QVQLQQSGAELMKPGASVKLACKATGYTFTAYWIEWVKQRPGHGLEWIGEILPGRGSTNSNEKFKGKATFTADTSSNTVYMQLSSLTTEDSAIFYCARGYRDFDYWGQGTTLTVSS VL: DIVMTQSQKFMSTTVGDRVSIICKASQNVGTAVAWYQQKPGQSPKVLIYSASNRYTGVPDRFTGSGSGTDFTLTISNMQSEDLADYFCQQYTSYPRTFGGGTKLEIK ?
185000
